B1: CPEB3 Ribozyme (parent)
chain: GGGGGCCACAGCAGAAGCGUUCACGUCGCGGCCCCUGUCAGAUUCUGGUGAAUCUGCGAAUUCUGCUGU

# Variants of: B1
# Assay Procedure: self-cleavage, relative activity (ratio to wild type); higher = more cleavage; co-transcriptional
Quick reference for self-cleavage among some variants

G4U U55C | 0.298

For record G3U C34U the listed self-cleavage is 0.381

For record A15G G58U the listed self-cleavage is 0.978

Origin of the recorded values: the RNAGym collection of RNA variant scans (doi:10.7554/elife.80360)
